Tested on: IFNγ stimulated STAT1 phosphorylation on Tyr701 (JAK1/2)
Experiment: JAK1/2 cellular target modulation: IFNγ stimulated phospho-STAT1 in PBMC
Format: cell-based
Conditions: human PBMC, IFNγ 10 ng/ml; read-out: Infγ-STAT1 IC50
measured-quantity: IC50

Examples with their reported IC50 follow.
>>> observed_value("Cc1ccc(-c2cnc3[nH]ccc3c2N[C@@H]2CCCN(C(=O)CC#N)C2)nc1")
"100 to 1000 nM"
>>> observed_value("N#CCC(=O)N1CCC[C@@H](Nc2c(C#N)cnc3[nH]ccc23)C1")
"100 to 1000 nM"
>>> observed_value("N#CCC(=O)N1CCC[C@@H](Nc2c(-c3ncco3)cnc3[nH]ccc23)C1")
"≤ 100 nM"

Query string: Data request, read-out IC50, for "Cc1noc(-c2cnc3[nH]ccc3c2N[C@@H]2CCCN(C(=O)CC#N)C2)n1"
Result string: 100 to 1000 nM

Query string: Data request, read-out IC50, for "CS(=O)(=O)c1cccc(-c2cnc3[nH]ccc3c2N[C@@H]2CCCN(C(=O)CC#N)C2)c1"
Result string: > 1000 nM

Query string: Data request, read-out IC50, for "Cc1ccnc(-c2cnc3[nH]ccc3c2N[C@@H]2CCCN(C(=O)CC#N)C2)c1"
Result string: 100 to 1000 nM

Query string: Data request, read-out IC50, for "N#CCCN1CCC[C@@H](Nc2c(-c3ncco3)cnc3[nH]ccc23)C1"
Result string: > 1000 nM

Query string: Data request, read-out IC50, for "Cc1ncc(-c2cnc3[nH]ccc3c2N[C@@H]2CCCN(C(=O)CC#N)C2)s1"
Result string: > 1000 nM

Query string: Data request, read-out IC50, for "C[C@H]1C[C@@H](Nc2c(-c3nncs3)cnc3[nH]ccc23)CN(C(=O)CC#N)C1"
Result string: ≤ 100 nM

Query string: Data request, read-out IC50, for "NC(=O)c1coc(-c2cnc3[nH]ccc3c2N[C@H]2CC[C@@H](O)C2)n1"
Result string: 100 to 1000 nM

Query string: Data request, read-out IC50, for "CSc1nccc(-c2cnc3[nH]ccc3c2N[C@@H]2CCCN(C(=O)CC#N)C2)n1"
Result string: ≤ 100 nM

Query string: Data request, read-out IC50, for "C[C@H]1CC[C@@H](Nc2c(-c3ncco3)cnc3[nH]ccc23)CN1C(=O)CC#N"
Result string: ≤ 100 nM

Query string: Data request, read-out IC50, for "CNC(=O)c1cnc(-c2cnc3[nH]ccc3c2N[C@@H]2CCCN(C(=O)CC#N)C2)s1"
Result string: ≤ 100 nM

Query string: Data request, read-out IC50, for "CNC(=O)c1coc(-c2cnc3[nH]ccc3c2N[C@@H]2C[C@H](C)CN(C(=O)CC#N)C2)n1"
Result string: ≤ 100 nM

Query string: Data request, read-out IC50, for C[S+]([O-])c1cnc(-c2cnc3[nH]ccc3c2N[C@@H]2CCCN(C(=O)CC#N)C2)s1 (some centres unmarked)
Result string: 100 to 1000 nM

Query string: Data request, read-out IC50, for "CN(C)C(=O)c1coc(-c2cnc3[nH]ccc3c2N[C@@H]2CCCN(C(=O)CC#N)C2)n1"
Result string: 100 to 1000 nM

Query string: Data request, read-out IC50, for "O[C@H]1CC[C@@H](Nc2c(-c3ncco3)cnc3[nH]ccc23)C1"
Result string: > 1000 nM
